Kindly state Ki for each of the entries shown.
molecular target: HA1 adenosine receptor (Homo sapiens, UniProt P30542); assay: Human adenosine A1 receptor affinity (Ki hA1); type: binding; settings: affinity to human adenosine A1 receptor
Sequence (P30542 whole entry): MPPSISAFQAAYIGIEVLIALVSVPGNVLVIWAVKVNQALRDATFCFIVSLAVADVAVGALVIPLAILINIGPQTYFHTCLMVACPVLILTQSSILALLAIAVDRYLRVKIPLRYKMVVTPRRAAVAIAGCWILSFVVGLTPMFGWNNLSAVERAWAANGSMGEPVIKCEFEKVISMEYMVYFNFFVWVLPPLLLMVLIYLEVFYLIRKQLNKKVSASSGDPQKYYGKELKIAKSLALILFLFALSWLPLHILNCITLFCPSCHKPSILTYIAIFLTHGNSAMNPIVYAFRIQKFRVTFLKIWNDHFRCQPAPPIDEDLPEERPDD
// note: answer is a bare numeric in nM

(Q) Recorded Ki for CCN(CC)C(=O)c1cc(N)n2nc(-c3ccc(OC)s3)nc2c1 , please?
(A) 717

(Q) Item under review: Cc1ccc(-c2nc3cc(C(=O)NC4CCc5ccccc54)cc(N)n3n2)s1 (stereo not drawn) . Reported Ki?
(A) 66.2

(Q) May I ask what Ki has been recorded for Nc1cc(C(=O)NCc2ccccc2Cl)cc2nc(-c3ccccn3)nn12 ?
(A) 69.8

(Q) Param item = Nc1cc(C(=O)NCc2ccc(Cl)cc2)cc2nc(-c3nccs3)nn12 ; retrieve measured Ki.
(A) 294

(Q) What Ki value was documented for this compound, Nc1cc(C(=O)N2CCCCC2)cc2nc(-c3ccc(Br)o3)nn12 ?
(A) 276

(Q) // query Ki value for entry CCCCNC(=O)c1cc(N)n2nc(-c3ccccc3O)nc2c1
(A) 258
